target: T1, Human EphA2 (Ecto) (Human, UniProt P29317 24-537); assay: FP competition; tracer Reference Compound C
T1 construct: extracellular domain; in-house)
T1 sequence (P29317 24-537): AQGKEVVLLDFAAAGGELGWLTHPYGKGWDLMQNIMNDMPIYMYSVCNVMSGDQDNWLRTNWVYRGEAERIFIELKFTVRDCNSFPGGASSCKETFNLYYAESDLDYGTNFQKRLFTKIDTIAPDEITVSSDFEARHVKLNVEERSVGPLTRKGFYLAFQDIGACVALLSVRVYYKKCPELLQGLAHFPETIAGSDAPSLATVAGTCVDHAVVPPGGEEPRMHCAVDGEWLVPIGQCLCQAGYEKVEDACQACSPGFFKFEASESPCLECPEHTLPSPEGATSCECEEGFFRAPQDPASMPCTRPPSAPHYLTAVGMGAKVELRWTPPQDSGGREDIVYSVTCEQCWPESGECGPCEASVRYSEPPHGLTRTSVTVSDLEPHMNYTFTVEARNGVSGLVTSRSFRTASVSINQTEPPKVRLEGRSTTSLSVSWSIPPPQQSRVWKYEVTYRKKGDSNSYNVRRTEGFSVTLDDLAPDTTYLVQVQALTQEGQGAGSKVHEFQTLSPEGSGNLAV
Starred links: 1 amine or outer side, 2 acyl side, 3 side chain; linkers in the order of their positions; H or OH if unused. Positions of bridges follow the written chain, without caps; N, C: chain ends. No end group written: not given here. TATA = O=C(CC[*:1])N1CN(C(=O)CC[*:2])CN(C(=O)CC[*:3])C1
Recorded Ki split into classes range 1 = under 20 nM, range 2 = from 20 nM up to 100 nM, range 3 = 100 nM and over

1. ACPLVNPLCLHPGWSCA (linker 2-9-16 via TATA) [Bicycle Compound Number 86 (TATA scaffold), ACPLVNPLCLHPGWSCA]; range 2
2. ACPLVNPLCLTPGWTCTNT (linker 2-9-16 via TATA) [Bicycle Compound Number 94 (TATA scaffold), ACPLVNPLCLTPGWTCTNT]; range 1
3. DLRCGGDPRCAYMNVCA (linker 4-10-16 via TATA) [Bicycle Compound Number 18 (TATA scaffold), DLRCGGDPRCAYMNVCA]; range 2
4. XXXXXXXXXXXARDCPLVNPLCLHPGWTC (N-terminal (β-Ala)-Sar10; 3 Cys thioether-linked to TATA scaffold) [Bicycle Compound Number 66 (BCY6099) (TATA scaffold), (β-Ala)-Sar10-ARDCPLVNPLCLHPGWTC]; range 1
5. CPLVNPLCLHPGWSCXGQXXXXXXK (N-terminal acetyl; X16 = HArg (homoarginine); X at 19-24 = Sar; K25 = D-Lys; 3 Cys thioether-linked to TATA scaffold) [Bicycle Compound Number 92 (TATA scaffold), Ac-CPLVNPLCLHPGWSC(HArg)GQ-Sar6-(D-K)]; range 1

**Q:** Exam item: assign ARDCPLVNPLCLHPGWTCAXXXXXXK (N-terminal acetyl; X at 20-25 = Sar (sarcosine); K26 = D-Lys; 3 Cys thioether-linked to TATA scaffold) [Bicycle Compound Number 68 (TATA scaffold), Ac-ARDCPLVNPLCLHPGWTCA-Sar6-(D-K)] to the correct category.
**A:** range 1
